Numbers sourced from ChEMBL document CHEMBL2176994.

- system name: Metabotropic glutamate receptor 2 (Homo sapiens, UniProt Q14416)
- Sequence (Q14416 whole entry): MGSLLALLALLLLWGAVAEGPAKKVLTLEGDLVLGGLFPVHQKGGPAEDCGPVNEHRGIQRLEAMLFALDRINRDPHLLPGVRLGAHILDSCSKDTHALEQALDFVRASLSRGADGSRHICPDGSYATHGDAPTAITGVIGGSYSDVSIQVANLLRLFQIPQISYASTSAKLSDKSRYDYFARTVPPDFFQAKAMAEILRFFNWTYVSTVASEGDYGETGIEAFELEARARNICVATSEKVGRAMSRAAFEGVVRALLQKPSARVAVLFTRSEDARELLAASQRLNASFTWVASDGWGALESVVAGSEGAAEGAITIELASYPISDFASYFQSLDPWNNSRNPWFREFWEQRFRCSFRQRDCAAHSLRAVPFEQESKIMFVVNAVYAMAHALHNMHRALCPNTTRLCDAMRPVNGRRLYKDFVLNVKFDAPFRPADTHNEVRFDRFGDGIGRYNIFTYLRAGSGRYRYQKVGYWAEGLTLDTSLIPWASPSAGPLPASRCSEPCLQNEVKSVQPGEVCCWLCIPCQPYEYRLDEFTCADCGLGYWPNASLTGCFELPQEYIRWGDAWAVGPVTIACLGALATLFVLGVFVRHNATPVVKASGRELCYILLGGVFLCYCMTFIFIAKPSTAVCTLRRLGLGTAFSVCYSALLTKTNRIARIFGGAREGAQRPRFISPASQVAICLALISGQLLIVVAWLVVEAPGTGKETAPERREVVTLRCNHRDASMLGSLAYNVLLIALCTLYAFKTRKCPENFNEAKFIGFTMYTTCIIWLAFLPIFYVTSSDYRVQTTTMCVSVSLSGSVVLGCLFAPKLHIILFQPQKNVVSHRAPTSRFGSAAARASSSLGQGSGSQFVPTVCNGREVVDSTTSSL
value kind: pKi
Keep in mind that pKi stands for -log10 of concentration in molar terms.

Exercise: Write down measured pKi (Metabotropic glutamate receptor 2 (Homo sapiens, UniProt Q14416)) for this compound. `N[C@]1(C(=O)O)[C@H]2[C@@H](C[C@H]1OCc1ccc(Cl)c(Cl)c1)[C@]2(F)C(=O)O`
Key: 8.66

* * *

- system name: Metabotropic glutamate receptor 3 (Homo sapiens, UniProt Q14832)
- Sequence (Q14832 whole entry): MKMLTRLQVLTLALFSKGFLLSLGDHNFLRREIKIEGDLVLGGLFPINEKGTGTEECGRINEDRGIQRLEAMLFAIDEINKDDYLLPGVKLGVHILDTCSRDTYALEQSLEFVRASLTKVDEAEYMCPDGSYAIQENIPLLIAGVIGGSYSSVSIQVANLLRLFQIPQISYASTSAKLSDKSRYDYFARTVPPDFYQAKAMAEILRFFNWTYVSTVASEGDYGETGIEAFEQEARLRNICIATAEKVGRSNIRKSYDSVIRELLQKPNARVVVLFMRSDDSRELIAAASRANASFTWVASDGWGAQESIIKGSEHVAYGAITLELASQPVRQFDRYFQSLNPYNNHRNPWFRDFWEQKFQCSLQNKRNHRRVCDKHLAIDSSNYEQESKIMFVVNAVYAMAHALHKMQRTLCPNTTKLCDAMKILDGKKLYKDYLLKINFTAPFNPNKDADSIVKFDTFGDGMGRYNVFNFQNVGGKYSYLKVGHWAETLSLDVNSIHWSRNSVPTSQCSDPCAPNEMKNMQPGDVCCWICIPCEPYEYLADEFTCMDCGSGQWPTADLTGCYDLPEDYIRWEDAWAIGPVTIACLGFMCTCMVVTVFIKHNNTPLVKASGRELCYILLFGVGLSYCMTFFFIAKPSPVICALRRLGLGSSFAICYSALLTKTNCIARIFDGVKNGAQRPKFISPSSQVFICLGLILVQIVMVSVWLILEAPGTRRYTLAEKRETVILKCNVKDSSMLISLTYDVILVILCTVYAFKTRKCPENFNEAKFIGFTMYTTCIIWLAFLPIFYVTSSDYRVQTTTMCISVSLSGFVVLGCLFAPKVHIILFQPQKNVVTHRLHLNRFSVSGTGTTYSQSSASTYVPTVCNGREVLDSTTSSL
- procedure summary: Antagonist activity at mGLUR3 expressed in CHO cells assessed as inhibition of glutamate-induced inhibition of forskolin-stimulated cAMP production
value kind: IC50 (nM)
Express it in nM; write the number only.

Exercise: Annotate the compound `N[C@]1(C(=O)O)[C@H]2[C@@H](C[C@H]1OCc1ccc(Cl)c(Cl)c1)[C@]2(F)C(=O)O` with its measured IC50.
Key: 24

* * *

- system name: Metabotropic glutamate receptor 3 (Homo sapiens, UniProt Q14832)
- procedure summary: Agonist activity at mGLUR3 expressed in CHO cells
value kind: EC50

Exercise: Write down measured EC50 (Metabotropic glutamate receptor 3 (Homo sapiens, UniProt Q14832)) for this compound. `N[C@@]1(C(=O)O)CC(=O)[C@@H]2[C@H]1[C@@]2(F)C(=O)O`
Key: 2.07 nM

* * *

- system name: Metabotropic glutamate receptor 2 (Homo sapiens, UniProt Q14416)
- procedure summary: Agonist activity at mGLUR2 expressed in CHO cells
value kind: EC50 (nM)
Express it in nM; write the number only.

Exercise: Annotate the compound `N[C@@]1(C(=O)O)CC(=O)[C@@H]2[C@H]1[C@@]2(F)C(=O)O` with its measured EC50.
Key: 0.57

* * *

- system name: Metabotropic glutamate receptor 2 (Homo sapiens)
- procedure summary: Antagonist activity at mGLUR2 expressed in CHO cells assessed as inhibition of glutamate-induced inhibition of forskolin-stimulated cAMP production
value kind: pIC50
Keep in mind that pIC50 stands for -log10 of concentration in molar terms.

Exercise: Annotate the compound `N[C@]1(C(=O)O)[C@H]2[C@@H](C[C@H]1OCc1ccc(Cl)c(Cl)c1)[C@]2(F)C(=O)O` with its measured pIC50.
Key: 7.70
